meta.source: patent US20240239780A1

- System: ferroportin (Fpn) (Mus musculus)
- Construct: endogenous in cells; host or cells: J774 mouse macrophage cell line, induced with Fe(III)NTA
- Sequence (Q9JHI9 whole entry): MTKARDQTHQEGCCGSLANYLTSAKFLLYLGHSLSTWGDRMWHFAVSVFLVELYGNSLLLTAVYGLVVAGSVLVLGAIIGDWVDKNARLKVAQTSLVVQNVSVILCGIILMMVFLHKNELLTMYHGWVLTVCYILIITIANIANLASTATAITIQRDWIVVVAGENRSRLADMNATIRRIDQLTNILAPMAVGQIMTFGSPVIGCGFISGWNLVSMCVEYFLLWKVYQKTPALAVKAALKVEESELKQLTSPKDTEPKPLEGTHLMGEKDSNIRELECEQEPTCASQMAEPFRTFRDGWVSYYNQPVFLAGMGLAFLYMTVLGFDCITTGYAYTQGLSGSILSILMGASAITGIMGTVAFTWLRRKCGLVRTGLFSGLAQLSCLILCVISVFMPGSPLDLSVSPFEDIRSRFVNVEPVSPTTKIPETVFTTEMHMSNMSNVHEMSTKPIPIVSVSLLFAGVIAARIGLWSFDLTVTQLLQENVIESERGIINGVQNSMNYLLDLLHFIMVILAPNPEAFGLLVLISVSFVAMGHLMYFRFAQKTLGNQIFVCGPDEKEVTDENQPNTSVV
- Experiment: Hepcidin Internalization Assay (J774)
- Format: cell-based
- Measurement context: J774 cells, TMR-hepcidin 25 nM, 2 hours; read-out: IC 50, average (AVE) of multiple measurements, hepcidin internalization assay
Endpoint: IC50

Some molecules with recorded IC50:
>>> df
                            compound_string  reported
0  O=C(NCc1ncccc1F)c1coc(CCNCCc2nc3ccc(CN4CCOCC4)cc3[nH]2)n1     57 nM
1  COc1cccc(-c2ccc3[nH]c(CCNCCc4nc(C(=O)NCc5ncccc5F)co4)nc3c2)c1OC      6 nM
2  O=C(NCc1ncccc1F)c1coc(CCNCCc2nc3c(-c4cccnc4)cccc3[nH]2)n1     53 nM

Incoming: Hello, please tell me recorded IC50 for this one: O=C(NCc1ncccc1F)c1coc(CCNCCc2nc3cccc(C#Cc4cccnc4)c3[nH]2)n1
Outgoing: 83 nM

Incoming: Hello, please tell me recorded IC50 for this one: O=C(NCc1ncccc1F)c1coc(CCNCCc2nc3cc(C#Cc4ccccc4)ccc3[nH]2)n1
Outgoing: 2 nM

Incoming: Hello, please tell me recorded IC50 for this one: COc1cccc(-c2ccc3[nH]c(CCNCCc4nc(C(=O)NCc5ccccn5)co4)nc3c2)c1
Outgoing: 26 nM

Incoming: Hello, please tell me recorded IC50 for this one: O=C(NCc1ncccc1F)c1coc(CCNCc2nc3cnc4ccccc4c3[nH]2)n1
Outgoing: 350 nM

Incoming: Hello, please tell me recorded IC50 for this one: COc1cccnc1CNC(=O)c1coc(CCNCCc2nc3cc(-c4ccccc4)ccc3[nH]2)n1
Outgoing: 16 nM

Incoming: Hello, please tell me recorded IC50 for this one: Cc1cccnc1CNC(=O)c1coc(CCNCCc2nc3cc4c(cc3[nH]2)OCCO4)n1
Outgoing: 11 nM

Incoming: Hello, please tell me recorded IC50 for this one: O=C(NCc1ncccc1F)c1coc(CCNCc2nc3cc4ccccc4cc3[nH]2)n1
Outgoing: 40 nM

Incoming: Hello, please tell me recorded IC50 for this one: O=C(NCc1ncccc1F)c1coc(CCNCCc2nc3cc(-c4cccc(F)c4)ccc3[nH]2)n1
Outgoing: 11 nM
